system: NCI-H292 lung cancer cells; assay: FDA drug screening, complete media vs cholesterol-free media without statin (TABLE 1); format: cell-based, human; conditions: NCI-H292 cells, cholesterol-free media without statin
Where a name gives a salt, the structure may show the parent alone.
READOUT_LABEL: Cholesterol-free
Numbers only.

{"COMPOUND": "Cc1ncc([N+](=O)[O-])n1C", "Cholesterol-free": 1.219}

For each listed entry, give its Cholesterol-free.
1. COC(=O)/C=C/C(=O)OCCN1C(=O)CCC1=O [Diroximel fumarate]
2. O=[N+]([O-])c1cn2c(n1)OC[C@@H](OCc1ccc(OC(F)(F)F)cc1)C2
3. OCCOCCN1CCN(C(c2ccccc2)c2ccc(Cl)cc2)CC1 (centres unmarked) [Hydroxyzine (dihydrochloride)]
4. COc1cc2c3cc1Oc1c(OC)c(OC)cc4c1[C@@H](Cc1ccc(O)c(c1)Oc1ccc(cc1)C[C@@H]3N(C)CC2)N(C)CC4 [Berbamine (dihydrochloride)]

### Response
1: 1.046; 2: 1.474; 3: 1.474; 4: 1.782

For each listed entry, give its Cholesterol-free.
1. Cc1cccc(C)c1NC(=O)C(C)N (centres unmarked) [Tocainide (hydrochloride)]
2. CCCCCCNC(=O)n1cc(F)c(=O)[nH]c1=O
3. CCC(=O)O[C@]1(C(=O)CCl)[C@@H](C)C[C@H]2[C@@H]3CCC4=CC(=O)C=C[C@]4(C)[C@@]3(F)[C@@H](O)C[C@@]21C [Clobetasol propionate]

### Response
1: 1.376; 2: 0.5487; 3: 1.481

----------
For each of the compounds below, state its Complete Media.
system: NCI-H292 lung cancer cells; test: FDA drug screening, complete media vs cholesterol-free media with simvastatin (TABLE 2); assay type: cell-based, human; conditions: NCI-H292 cells, FDA drug library screen, complete media
One number for each entry.

For each listed entry, give its Complete Media.
1. NC(=O)CN1CCCC1=O [Piracetam]
2. COc1cc2nccc(Oc3ccc(NC(=O)Nc4cc(C)on4)c(Cl)c3)c2cc1OC [Tivozanib]
3. NC(CO)(CO)CO [Trometamol]
4. C=Cc1c(C)c2cc3nc(c(CC(=O)N[C@@H](CC(=O)O)C(=O)O)c4[nH]c(cc5nc(cc1[nH]2)C(C)=C5CC)c(C)c4C(=O)O)[C@@H](CCC(=O)O)[C@@H]3C [Talaporfin (sodium)]
5. COc1ccc2[nH]cc(CCNC(C)=O)c2c1 [Melatonin]

### Response
1.066
1.06
0.9694
0.9459
1.753

For each listed entry, give its Complete Media.
1. CCCSc1nc(N[C@@H]2C[C@H]2c2ccc(F)c(F)c2)c2nnn([C@@H]3C[C@H](OCCO)[C@@H](O)[C@H]3O)c2n1 [Ticagrelor]
2. CC[C@H](C)C(=O)N1CCC(NC(=O)Nc2ccc(OC(F)(F)F)c(F)c2)CC1 [EC5026]
3. C[C@H]1[C@H](OC(=O)CCC(=O)O)O[C@@H]2O[C@@]3(C)CC[C@H]4[C@H](C)CC[C@@H]1[C@@]24OO3 [Artesunate]

### Response
1: 1.275; 2: 1.143; 3: 0.9407

----------
For each of the molecules below, state its Complete Media.
tested on: NCI-H292 lung cancer cells; experiment: FDA drug screening, complete media vs cholesterol-free media with simvastatin (TABLE 2); type: cell-based, human; settings: NCI-H292 cells, complete media; FDA drug library screen (TABLE 2)
Structures can show the parent of a compound that is named as a salt.
Answers are plain numbers.

{"MOLECULE": "O[C@H]1[C@H](O)[C@@H](O)[C@H](O)[C@@H](O)[C@H]1O", "Complete Media": 0.9333}
{"MOLECULE": "CC(C)(C)NC[C@H](O)COc1cccc2c1CCCC2=O [Levobunolol (hydrochloride)]", "Complete Media": 0.921}
{"MOLECULE": "COc1ccc(-c2ccc3cc(C(=O)O)ccc3c2)cc1C12CC3CC(CC(C3)C1)C2", "Complete Media": 0.9286}

For each listed entry, give its Complete Media.
1. CC(=O)N(CC(O)CN(C(C)=O)c1c(I)c(C(=O)NCC(O)CO)c(I)c(C(=O)NCC(O)CO)c1I)c1c(I)c(C(=O)NCC(O)CO)c(I)c(C(=O)NCC(O)CO)c1I (centres unmarked)
2. CC#CCn1c(N2CCC[C@@H](N)C2)nc2c1c(=O)n(Cc1nc(C)c3ccccc3n1)c(=O)n2C
3. C#Cc1cccc(Nc2ncnc3cc(OCCOC)c(OCCOC)cc23)c1
4. N[C@@H](CS)C(=O)O
5. CCCCCCCCN=c1ccn(CCCCCCCCCCn2ccc(=NCCCCCCCC)cc2)cc1 [Octenidine (dihydrochloride)]

### Response
1. 1.164
2. 1.067
3. 0.4599
4. 1.439
5. −0.0003925

----------
tested on: NCI-H292 lung cancer cells; test: FDA drug screening, complete media vs cholesterol-free media without statin (TABLE 1); format: cell-based, human; conditions: complete vs cholesterol-free media; greater than 0 enhanced anti-cancer activity, about 0 neutral, below 0 antagonists
Structures can show the parent of a compound that is named as a salt. Peptide text beside a SMILES is read from it.
For each of the compounds below, state its Difference.
Give bare numbers.

# annotated cases, reported Difference shown
{"COMPOUND": "CN1CCC[C@@H]1Cc1c[nH]c2ccc(CCS(=O)(=O)c3ccccc3)cc12 [Eletriptan (hydrobromide)]", "READOUT_LABEL": "Difference", "RECORDED_NUMBER": "−0.33"}
{"COMPOUND": "O=c1[nH]c(=O)n([C@H]2C[C@H](O)[C@@H](CO)O2)cc1/C=C/Br [Brivudine]", "READOUT_LABEL": "Difference", "RECORDED_NUMBER": "−0.38"}
{"COMPOUND": "Cc1cccc(C)c1OCC(=O)N[C@@H](Cc1ccccc1)[C@@H](O)C[C@H](Cc1ccccc1)NC(=O)[C@H](C(C)C)N1CCCNC1=O [Lopinavir]", "READOUT_LABEL": "Difference", "RECORDED_NUMBER": "−0.41"}
{"COMPOUND": "Cn1cc(-c2cc3c(N4CCN(c5ncc([C@@](C)(N)c6ccc(F)cc6)cn5)CC4)ncnn3c2)cn1 [avapritinib, reference compound]", "READOUT_LABEL": "Difference", "RECORDED_NUMBER": "−0.33"}

For each listed entry, give its Difference.
1. CCCN(CCC)CCc1cccc2c1CC(=O)N2 [Ropinirole (hydrochloride)]
2. FC(F)(F)c1ccc(CNc2ccc(Cc3c[nH]c4ncc(Cl)cc34)cn2)cn1 [Pexidartinib (hydrochloride)]
3. Nc1ccncc1N [Amifampridine]
4. O=C(NCc1c(F)cc(F)cc1F)c1cn2c(c(O)c1=O)C(=O)N1[C@H]3CC[C@H](C3)O[C@@H]1C2 [Bictegravir]
5. Cn1nnc2c(C(N)=O)ncn2c1=O [Temozolomide]
6. O=S(=O)(O)Oc1ccc(C(c2ccc(OS(=O)(=O)O)cc2)c2ccccn2)cc1 [Sodium Picosulfate]

### Response
1. −0.31
2. −0.45
3. −0.33
4. −0.34
5. −0.31
6. −0.37

For each listed entry, give its Difference.
1. C[N+](C)(C)CCOP(=O)([O-])OP(=O)([O-])OC[C@H]1O[C@@H](n2ccc(N)nc2=O)[C@H](O)[C@@H]1O.[Na+] [Citicoline (sodium)]
2. Cc1c(C)c2c(c(C)c1O)CC[C@@](C)(CCC[C@H](C)CCC[C@H](C)CCCC(C)C)O2 [α-Vitamin E]
3. COc1ccnc(C[S+]([O-])c2nc3cc(-n4cccc4)ccc3[nH]2)c1C (stereo not drawn) [Ilaprazole (sodium)]
4. C[C@H]1C[C@@H]2[C@H]([C@@H](O)C[C@@]3(C)[C@H]2CC[C@]3(O)C(=O)COC(=O)CCC(=O)O)[C@@]2(C)C=CC(=O)C=C12 [Methylprednisolone succinate]
5. CCCCN(CCCC)CCC(O)c1cc2c(Cl)cc(Cl)cc2c2cc(C(F)(F)F)ccc12 (stereo not drawn) [Halofantrine hydrochloride]

### Response
["−0.34", "−0.42", "−0.38", "−0.36", "−0.43"]

For each listed entry, give its Difference.
1. O=C1CC2(CCCC2)CC(=O)N1CCCCN1CCN(c2ncccn2)CC1 [Buspirone (hydrochloride)]
2. OC(CCN1CCCCC1)(c1ccccc1)C1CCCCC1 (stereo not drawn) [Trihexyphenidyl (hydrochloride)]

### Response
1: −0.43; 2: −0.44

For each listed entry, give its Difference.
1. CCOc1nc2cccc(C(=O)O)c2n1Cc1ccc(-c2ccccc2-c2nc(=O)o[nH]2)cc1 [Azilsartan]
2. O=C1CC[C@@H](C(=O)N2CSC[C@H]2C(=O)O)N1 [Pidotimod] (HELM PEPTIDE1{[Glp].[O=C(O)[C@@H]1CSCN1[*:1]]}$$$$V2.0)
3. C(=C\c1ccccc1)/CN1CCN(C(c2ccccc2)c2ccccc2)CC1 [Cinnarizine]
4. CO/N=C(\C(=O)N[C@@H]1C(=O)N2C(C(=O)O)=C(COC(C)=O)CS[C@H]12)c1csc(N)n1 [Cefotaxime (sodium salt)]
5. C#C[C@]1(O)CC[C@H]2[C@@H]3CCc4cc(OC5CCCC5)ccc4[C@H]3CC[C@@]21C [Quinestrol]

### Response
−0.40
−0.41
−0.42
−0.31
−0.47

For each listed entry, give its Difference.
1. COc1ccc2cc([C@H](C)C(=O)O)ccc2c1 [Naproxen (sodium)]
2. CCCCN1CCCC[C@H]1C(=O)Nc1c(C)cccc1C [Levobupivacaine (hydrochloride)]

### Response
−0.32
−0.33
